Overview of reported melting point across a group of compounds:

// solved cases for melting point follow
{"columns": ["compound", "melting point"],
 "data": [
  ["Cc1c(CO)c(CO)c2sc3ccccc3n12", "138 to 139 °C"],
  ["CCCCCCc1ccc(C=CC(=O)c2ccc(OCC=C(C)C)cc2OCC(=O)O)cc1", "106 to 108 °C"],
  ["NS(=O)(=O)OCCOc1ccc(O)cc1", "92 to 93 °C"],
  ["O=C(O)COc1ccc(-c2c3ccccc3cc3sc4ccccc4c23)cc1", "221 to 223 °C"],
  ["OCC1(Oc2ccc3c(c2)c(-c2cc4cccnc4[nH]2)cn3C2(CO)CCC2)CCC1", "165 to 166 °C"],
  ["COC(=O)c1cc(N=Nc2ccc(S(=O)(=O)Nc3ccccn3)cc2)ccc1OC(C)=O", "204 to 207 °C"],
  ["CC(C)(CO)C[C@H]1COC(C)(C)N1C(=O)OC(C)(C)C", "45 to 46 °C"],
  ["CC(C)(CC(O)(Cn1ccc(=O)c2sccc21)C(F)(F)F)c1cc(S(C)(=O)=O)cc2c1OCC2 (stereo not given)", "163 to 165 °C"]
]}

State the recorded melting point for this entry: CCOC(=O)Nc1c(C(=O)OCC)oc2cc(OCc3ccccc3)ccc12
100 °C

---

recorded-endpoint: melting point

{"columns": ["structure-smiles", "result"],
 "data": [
  ["CC(C)(C)Sc1ccc(Cn2c(CC(C)(C)C(=O)O)c(SC(C)(C)C)c3cc(OCc4ccc5ccccc5n4)ccc32)cc1", "172 to 173 °C"]
]}

State the recorded melting point for this entry: CS(=O)(=O)N1CCC(C=O)CC1
97 °C

State the recorded melting point for this entry: O=S(=O)(Nc1ccc2c(OCc3ccc(C4CCCCC4)cc3)cccc2c1)C(F)(F)F
108 to 110 °C

State the recorded melting point for this entry: O=C(Nc1cccc(F)c1F)c1ccc(-n2nc(C(F)(F)F)cc2C2CC2)nc1
155 to 160 °C

State the recorded melting point for this entry: C=C(CNNC(=O)OC(C)(C)C)c1ccccc1
153 to 154 °C

State the recorded melting point for this entry: Nc1ccc(-c2ccc(=O)[nH]n2)cc1Br
266 to 267 °C

---

recorded-endpoint: melting point

// solved cases for melting point follow
{"columns": ["compound", "result"],
 "data": [
  ["COc1cc(C)nc(NC(=O)NS(=O)(=O)c2cccc3c2NC(C)C3)n1 (stereo not given)", "175 to 177 °C"],
  ["CCOC(=O)CCCCCCC1NC(=O)NC1=O (stereo not given)", "110 °C"],
  ["CCCCCCCCCCCCCCCCOCC(CNS(=O)(=O)CCCCl)COC (stereo not given)", "44 to 46.5 °C"],
  ["Cc1ccc(N=c2sc3ncccc3c(=O)n2C)cc1", "144 °C"],
  ["CC(C)(C)C(=O)c1c[nH]c2ncc(-c3ccccn3)nc12", "276 to 278 °C"],
  ["C[C@@H](n1cnc2cc(N3CCOCC3)ccc2c1=O)[C@](O)(Cn1cncn1)c1ccc(F)cc1F", "196 to 197 °C"],
  ["CCN(Cc1ccccc1)C(=O)Cn1c2cccc(OCc3ccccc3)c2c2c(COC)c(C(=O)OC(C)C)ncc21", "142 to 144 °C"],
  ["CCOC(=O)N(C)c1cccc(-c2ccc3nnc(C)n3n2)c1", "146 to 149 °C"]
]}

State the recorded melting point for this entry: N#Cc1ccc(CCC(=O)c2ccc(C#N)cc2)cc1
149 to 152 °C

State the recorded melting point for this entry: CC(C)(C)OC(=O)NCCC(=O)NCC(C(=O)OCc1ccccc1)c1ccccc1 (stereo not given)
84.5 to 86 °C

State the recorded melting point for this entry: CCn1nc(-c2c(-c3ccc(F)cc3)nn3ccc(OC)cc23)ccc1=O
179 to 180 °C

State the recorded melting point for this entry: Cc1cc2c(S(C)(=O)=O)nc(CCC(F)(F)F)nc2s1
60 to 61 °C

State the recorded melting point for this entry: CN(c1ccc(Br)cc1)S(=O)(=O)c1cccc(C(=O)Nc2ccc(Cl)cc2F)c1
117 to 118 °C

State the recorded melting point for this entry: OC(CCN1CC=C(c2ccccc2)CC1)c1ccc(Cl)cc1 (stereo not given)
141 °C

State the recorded melting point for this entry: O=c1c2c[nH]c3ccccc3c-2nn1-c1ccc(O)cc1
294 to 296 °C

State the recorded melting point for this entry: COC(=O)C12C3C4C1(C(=O)OC)C1(Cl)C2C3(C(=O)OC)C41C(=O)OC (stereo not given)
134 to 135 °C

State the recorded melting point for this entry: CCCCC(C(=O)OCC)(C(=O)OCC)c1nc(C)nc2c1c(SC)nn2-c1c(Cl)cc(Cl)cc1Cl
148 to 150 °C

State the recorded melting point for this entry: COc1ccc(-c2c(Cl)c(CN3C(=O)c4ccccc4C3=O)nc3sc4c(c23)CCS(=O)(=O)C4)cc1
298 to 299 °C

State the recorded melting point for this entry: CC(C)COC(=O)Nc1cccc(-c2ccnc3c(Br)cnn23)c1
90 to 92 °C

State the recorded melting point for this entry: OCc1c(Cl)cc(Cl)c2ccc(Cl)cc12
107 to 112 °C
